test: Lipophilicity, logD of the compound at pH 7.4; assay type: physicochemical; conditions: buffer
Hi there, I'd appreciate the recorded logD for every entry that follows.
API doc: respond with a numeric literal and nothing else, no unit.

Ask: // returns reported logD for input `CC(C)COc1ccc(CNC(=O)N(Cc2ccc(F)cc2)C2CCN(C)CC2)cc1`
Result: 2.78

Ask: Follow-up entry: `CN1CCC(N(Cc2ccc(F)cn2)C(=O)NCc2ccc(OCC(F)(F)F)cc2)CC1`
Result: 1.97

---

assay: AUC(0 to 24 hrs) in mouse at 100 mg/kg by UHPLC/FT-ICR-MS analysis; assay type: ADME, organism-based; parameters: time < 24 hr, dose 100 mg/kg; conditions: in vivo
Assay Metric: AUC(0-t) at 24 h (ng·h/mL)
Use ng·h/mL as the unit, but write only the number.

Ask: // returns reported AUC(0-t) at 24 h for input `CC(C)COc1ccc(CNC(=O)N(Cc2ccc(F)cc2)C2CCN(C)CC2)cc1`
Result: 4460
